What log10(IC50) was measured for each of the following?
Target: AsPC-1 cells (Homo sapiens, UniProt P01116, G12D)
Construct: p-ERK/total ERK AlphaSureFire read-out
Sequence (P01116 1-188 isoform P01116-2 G12D): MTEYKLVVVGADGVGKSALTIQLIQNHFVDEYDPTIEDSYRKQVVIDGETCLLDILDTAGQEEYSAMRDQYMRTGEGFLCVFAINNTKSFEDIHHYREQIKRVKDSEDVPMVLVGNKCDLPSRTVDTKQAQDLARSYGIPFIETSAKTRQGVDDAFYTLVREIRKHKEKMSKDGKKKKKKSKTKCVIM
Experiment: Cellular phospho-ERK assay, AsPC-1 cells (KRAS G12D)
Details: 2 hours, read-out: AsPC1 pERK IC50
Description: Procedure for Cellular Phospho-ERK Assay in KRAS Wild Type and Mutant (G12D, G12V) Cell Lines […] Cells for the assay were harvested in growth medium after TrypLE (ThermoFisher scientific 12604021) digestion and were seeded in a 384-well collagen coated cell culture plate (Corning 356702) at a density of 10,000-15,000 cells/20 μL/well, and incubated at 37° C., 5% CO2 overnight. […] Dose response curves were analyzed using a 4-parameter logistic model to calculate IC50 values using Spotfire software.
Heads up: the numbers are on a log10 scale; they represent IC50 in nM.

Query :: Given Fc1ccc2cc3[nH]ncc3c(-c3nccc4c3C3(CC3)c3nc(OC[C@@]56CCCN5C[C@H](F)C6)nc(N5C[C@H]6CC[C@@H](C5)N6)c3-4)c2c1Cl (single isomer, unassigned) , state its recorded log10(IC50).
Result :: 2.28

Query :: Given `FC(F)(F)C1(COc2nc(N3C[C@H]4CC[C@@H](C3)N4)c3c(n2)sc2c(-c4c(C5CC5)c(Cl)cc5[nH]ncc45)nccc23)CCOCC1` , state its recorded log10(IC50).
Result :: 3.69

Query :: Given `Cc1cc2[nH]ncc2c(-c2nccc3c2sc2nc(OC[C@@]45CCCN4C[C@H](F)C5)nc(N4CC5CC(C4)N5)c23)c1C(F)(F)F` , state its recorded log10(IC50).
Result :: 2.84

Query :: Given `Cc1cc2[nH]ncc2c(-c2nccc3c2sc2nc(OCC4(C)CS(=O)(=O)C4)nc(N4C[C@H]5CC[C@@H](C4)N5)c23)c1C(F)(F)F` , state its recorded log10(IC50).
Result :: 4.11

Query :: Given `C#Cc1csc2cc3[nH]ncc3c(-c3nccc4c3sc3nc(OC[C@@]56CCCN5C/C(=C\F)C6)nc(N5C[C@H]6CC[C@@H](C5)N6)c34)c12` , state its recorded log10(IC50).
Result :: 0.93

Query :: Given `Fc1ccc2cc3[nH]ncc3c(-c3nccc4c3sc3nc(OC[C@@]56CCCN5C[C@H](F)C6)nc(N5C[C@H]6CC[C@@H](C5)N6)c34)c2c1Cl` , state its recorded log10(IC50).
Result :: 2.34

###

What pIC50 was measured for each of the following?
Molecular target: AsPC-1 cells (Homo sapiens, UniProt P01116, G12D)
Construct: p-ERK/total ERK AlphaSureFire read-out
Test: Cellular phospho-ERK assay, AsPC-1 cells (KRAS G12D)
Conditions: 2 hours, read-out: AsPC1 pERK IC50
Scale explanation: pIC50 corresponds to minus log10 of a concentration expressed in moles per litre.

Query :: Given `Cc1cc2[nH]ncc2c(-c2nccc3c2sc2nc(OC[C@@]45CCCN4C[C@H](F)C5)nc(N4[C@@H]5CC[C@H]4CN(C)C5)c23)c1C(F)(F)F` , state its recorded pIC50.
Result :: 5.32

Query :: Given `Cc1cc2[nH]ncc2c(-c2nccc3c2sc2nc(OC[C@@]45CCCN4C[C@H](F)C5)nc(N4C[C@@H]5CC[C@H]4CN5)c23)c1C(F)(F)F` , state its recorded pIC50.
Result :: 6.20

Query :: Given `C#Cc1c(F)ccc2cc3[nH]ncc3c(-c3nccc4c3sc3nc(OC[C@@]56CCCN5C[C@H](F)C6)nc(N5C[C@H]6CC[C@@H](C5)N6CCCC#N)c34)c12` , state its recorded pIC50.
Result :: 6.43

Query :: Given `F[C@H]1CN2CCC[C@@]2(COc2nc(N3C[C@H]4CC[C@@H](C3)N4)c3c(n2)sc2c(-c4c5cn[nH]c5cc5cccc(Cl)c45)nccc23)C1` , state its recorded pIC50.
Result :: 6.35

Query :: Given `Cc1cc2[nH]ncc2c(-c2nncc3c2sc2nc(OC[C@@]45CCCN4C[C@H](F)C5)nc(N4C[C@H]5CC[C@@H](C4)N5)c23)c1C(F)(F)F` , state its recorded pIC50.
Result :: 6.14

Query :: Given `Cc1cc2[nH]ncc2c(-c2nccc3c2sc2nc(OC[C@@]45CCCN4C[C@H](F)C5)nc(N4C[C@H]5CC[C@@](C)(C4)N5)c23)c1C(F)(F)F` , state its recorded pIC50.
Result :: 6.40

Query :: Given `C#Cc1c(F)ccc2cc3[nH]ncc3c(-c3nccc4c3sc3nc(OC[C@]5(CN6CC[C@@H](F)C6)CC5(F)F)nc(N5C[C@H]6CC[C@@H](C5)N6)c34)c12` , state its recorded pIC50.
Result :: 6.53

Query :: Given `Cc1cc2[nH]ncc2c(-c2nccc3c2sc2nc(OC[C@@]45CCCN4C[C@H](F)C5)nc(N4C[C@H]5C[C@@H]4CN5)c23)c1C(F)(F)F` , state its recorded pIC50.
Result :: 5.29

Query :: Given Cc1cc2[nH]ncc2c(-c2nccc3c2sc2nc(OC[C@@]45CCCN4C[C@H](F)C5)nc(N4[C@@H]5CC[C@H]4CN(CC(C)O)C5)c23)c1C(F)(F)F (some centres unmarked) , state its recorded pIC50.
Result :: 4.83

Query :: Given `C#Cc1c(F)sc2cc3[nH]ncc3c(-c3nccc4c3sc3nc(OC[C@@]56CCCN5C[C@H](F)C6)nc(N5C[C@H]6CC[C@@H](C5)N6)c34)c12` , state its recorded pIC50.
Result :: 8.20

Query :: Given `C#Cc1c(F)ccc2cc3[nH]ncc3c(-c3nccc4c3sc3nc(OC[C@@]56CCCN5C/C(=C\F)C6)nc(N5C[C@H]6CC[C@@H](C5)N6)c34)c12` , state its recorded pIC50.
Result :: 8.09

Query :: Given `Cc1cc2[nH]ncc2c(-c2nccc3c2sc2nc(OC[C@@]45CCCN4C[C@H](F)C5)nc(N4C[C@H]5CC[C@@H](C4)N5)c23)c1C(F)(F)F` , state its recorded pIC50.
Result :: 6.70

Query :: Given `F[C@H]1CN2CCC[C@@]2(COc2nc(N3C[C@H]4CC[C@@H](C3)N4)c3c(n2)sc2c(-c4c(C5(F)CC5)c(C(F)(F)F)cc5[nH]ncc45)nccc23)C1` , state its recorded pIC50.
Result :: 6.21

Query :: Given `Cc1cc2[nH]ncc2c(-c2nccc3c2sc2nc(OC[C@@]45CCCN4C[C@H](F)C5)nc(NCC4(N(C)C)CCC4)c23)c1C(F)(F)F` , state its recorded pIC50.
Result :: 4.92

Query :: Given `C#Cc1c(F)ccc2cc3[nH]ncc3c(-c3nccc4c3sc3nc(OCC5(C(=O)NC)CC5)nc(N5C[C@H]6CC[C@@H](C5)N6)c34)c12` , state its recorded pIC50.
Result :: 5.30

Query :: Given `C#Cc1c(F)ccc2cc3[nH]ncc3c(-c3nccc4c3sc3nc(OC[C@@]56CCC7(CC7)N5C[C@H](F)C6)nc(N5C[C@H]6CC[C@@H](C5)N6)c34)c12` , state its recorded pIC50.
Result :: 6.68

Query :: Given C#Cc1c(F)ccc2cc3[nH]ncc3c(-c3nccc4c3sc3nc(OCC56CCCC5N(C)CCC6)nc(N5C[C@H]6CC[C@@H](C5)N6)c34)c12 (some centres unmarked) , state its recorded pIC50.
Result :: 7.74

Query :: Given `C#Cc1csc2cc3[nH]ncc3c(-c3nccc4c3sc3nc(OCC5(C#N)CCOCC5)nc(N5C[C@H]6CC[C@@H](C5)N6)c34)c12` , state its recorded pIC50.
Result :: 5.53

###

Target: KRAS G12D (Homo sapiens, UniProt P01116, G12D)
Sequence (P01116 with tags, fused parts or gaps isoform P01116-2 G12D): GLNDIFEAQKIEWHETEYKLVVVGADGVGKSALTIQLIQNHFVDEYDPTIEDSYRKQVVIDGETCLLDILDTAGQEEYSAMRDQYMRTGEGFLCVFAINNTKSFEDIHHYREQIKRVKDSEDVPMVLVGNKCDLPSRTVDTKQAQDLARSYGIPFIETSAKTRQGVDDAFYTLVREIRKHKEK
Assay: SOS-catalyzed nucleotide exchange assay, KRAS G12D (Procedure A)
Format: biochemical
Conditions: guanine nucleotide exchange (GNE)
What IC50 was measured for each of the following?
Numeric answer only, unit µM assumed.

Query :: Given `Cc1cc2[nH]ncc2c(-c2nccc3c2sc2nc(OCC4(C#N)CCOCC4)nc(N4C[C@H]5CC[C@@H](C4)N5)c23)c1C(F)(F)F` , state its recorded IC50.
Result :: 3.79

Query :: Given `FC(F)(F)C1(COc2nc(N3C[C@H]4CC[C@@H](C3)N4)c3c(n2)sc2c(-c4c(C5CC5)c(Cl)cc5[nH]ncc45)nccc23)CCOCC1` , state its recorded IC50.
Result :: 3.2

Query :: Given Cc1cc2[nH]ncc2c(-c2nccc3c2sc2nc(OCC4(C)CCCO4)nc(N4C[C@H]5CC[C@@H](C4)N5)c23)c1C(F)(F)F (stereo partly drawn) , state its recorded IC50.
Result :: 2.81

###

What IC50 was measured for each of the following?
Target: KRAS G12V (Homo sapiens, UniProt P01116, G12V)
Sequence (P01116 with tags, fused parts or gaps isoform P01116-2 G12V): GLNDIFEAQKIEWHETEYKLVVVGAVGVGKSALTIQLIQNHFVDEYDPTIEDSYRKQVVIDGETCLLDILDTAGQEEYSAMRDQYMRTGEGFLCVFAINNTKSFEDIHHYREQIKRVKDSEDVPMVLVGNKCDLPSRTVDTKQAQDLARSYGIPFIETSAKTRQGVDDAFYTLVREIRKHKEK
Test: SOS-catalyzed nucleotide exchange assay, KRAS G12V (Procedure A)
Assay type: biochemical
Conditions: GNE

Query :: API: value(readout= IC50, system= KRAS G12V (Homo sapiens, UniProt P01116, G12V), query= CCn1c2nc(OC[C@@]34CCCN3C[C@H](F)C4)nc(N3C[C@H]4CC[C@@H](C3)N4)c2c2ccnc(-c3c(C(F)(F)F)c(C)cc4[nH]ncc34)c21 [Ex-11] )
Result :: > 11.1 µM

Query :: API: value(readout= IC50, system= KRAS G12V (Homo sapiens, UniProt P01116, G12V), query= C#Cc1cc(F)cc2cc3[nH]ncc3c(-c3nccc4c3sc3nc(OC[C@@]56CCCN5C[C@H](F)C6)nc(N5C[C@H]6CC[C@@H](C5)N6)c34)c12 [Ex-86] )
Result :: 1.24 µM

Query :: API: value(readout= IC50, system= KRAS G12V (Homo sapiens, UniProt P01116, G12V), query= C#Cc1c(F)ccc2cc3[nH]ncc3c(-c3nccc4c3sc3nc(OC[C@]5(CN6CCC(COC)CC6)CC5(F)F)nc(N5C[C@H]6CC[C@@H](C5)N6)c34)c12 [Ex-111] )
Result :: 4.4 µM
